Test: NCI Yeast Anticancer Drug Screen. Data for the sgs1 mgt1 strain (AID 161);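 note: 0% = growth of cultures given vehicle only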
Conditions: S. cerevisiae sgs1 mgt1 strain, at 50.0 µM
Compounds without any hit were thinned out: in the full panel of roughly 79,000, 15% have a hit. Active and inactive are the calls of the source. Cut-off read from the data, not from the text of the source: active = growth inhibition above about 70%; inactive = the rest.
Please answer using one outcome listed in yes (1) = active, no (0) = inactive

Field: example entries. Status: answers known.
COc1ccc(C)c2nc3ccccc3nc12 = no (0)
O=C(O)c1ccccc1-c1c2cc([N+](=O)[O-])c(=O)c(Br)c-2oc2c(Br)c(O)c([N+](=O)[O-])cc12 = no (0)
N=Nc1c(OC(=O)Nc2cccc(Cl)c2)[nH]c2ccccc12 = yes (1)
COC(=O)c1ccccc1C(=O)c1cc(OC)c2c(c1OC)CCCC2 = yes (1)
Cc1ccc(S(=O)(=O)N/N=C2/CC[C@H](C(C)(C)C)C[C@@H]2C)cc1 = yes (1)
O=S1(=O)c2ccccc2C(Br)C1Br (configuration not stated) = no (0)
Oc1ccc(Cl)cc1-c1ccccc1 = yes (1)
COc1ccc(C2Oc3ccc(Cl)cc3C=C2[N+](=O)[O-])cc1OC (configuration not stated) = yes (1)

# input Hi, sorry to bother you, what did the test record for CCO/C=C1\C(=O)C=C(C)CC1c1ccc(OC)c(OC)c1OC (configuration not stated) ?
# output no (0)

# input What outcome does the record of this test show for O=C(CN(Cc1ccccc1)Cc1ccccc1)N1CCc2c([nH]c3ccccc23)C1c1cccnc1 (configuration not stated) ?
# output yes (1)

# input // return assay outcome for `Cc1nn(C(=O)c2ccncc2)c(C)c1N=Nc1ccccc1[N+](=O)[O-]`
# output yes (1)

====

Test: NCI Yeast Anticancer Drug Screen. Data for the sgs1 mgt1 strain (AID 161);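 note: 0% = growth of cultures given vehicle only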
Settings: S. cerevisiae sgs1 mgt1 strain, at 50.0 µM, hits give high values
Compounds without any hit were thinned out: in the full panel of roughly 79,000, 15% have a hit.
quantityName: growth inhibition (%)
Please respond with the number in % and leave the unit unwritten.

O=C(OC12CCCCC1CCCC2)c1ccc([N+](=O)[O-])cc1 (stereo not drawn) = 99.1

# input Give growth inhibition for the following molecule: `C1=C(c2ccccc2)CCc2c1ccc1ccccc21`
# output 0

# input // fetch growth inhibition given entry `COC(=O)/C(Br)=C(\Br)c1ccccc1`
# output 36.7

# input Identify the reported growth inhibition for the following entry. `O=[N+]([O-])c1ccc(SCc2ccccc2)c2nonc12`
# output 88

# input Give growth inhibition for the following molecule: `O=C1C=CC(=NN=C(c2ccccc2)c2ccccc2)C=C1`
# output 38.1

# input Given `O=[N+]([O-])c1ccc2nc(CCl)[nH]c2c1` , respond with its growth inhibition.
# output 75

# input Give growth inhibition for `O=[N+]([O-])c1ccc2c(c1)/C(=C/c1ccccc1O)c1ccccc1-2`
# output 88.5

# input Provide only the value of recorded growth inhibition for `O=C(/C=C/c1ccc2c(c1)OCO2)c1ccc(O)cc1`
# output 40.8

# input Specify measured growth inhibition for COC1OC(COC(=O)c2ccccc2)CC1F (stereo not drawn) .
# output 94

# input Please report the measured growth inhibition for `C(=C/c1ccccc1)/C=N/Nc1ccccc1`
# output -23.8

# input Output growth inhibition of `COc1cc2c(cc1O)CCCCC2`
# output 6.9

# input Consider the molecule COC(=O)CCC(C)C1CCC2C3CCC4CC(SC(=N)N)CCC4(C)C3CC(O)C12C (stereo not drawn) . State its measured growth inhibition.
# output 99.7

# input Please indicate growth inhibition recorded for `CC(=O)Oc1c(Br)cc(Br)cc1Br`
# output 4.5

From: PubChem BioAssay (NCI)
